Recorded pIC50 by entry
# tested target: 5-hydroxytryptamine receptor 1D (Homo sapiens, UniProt P28221)
# Sequence (P28221 whole entry): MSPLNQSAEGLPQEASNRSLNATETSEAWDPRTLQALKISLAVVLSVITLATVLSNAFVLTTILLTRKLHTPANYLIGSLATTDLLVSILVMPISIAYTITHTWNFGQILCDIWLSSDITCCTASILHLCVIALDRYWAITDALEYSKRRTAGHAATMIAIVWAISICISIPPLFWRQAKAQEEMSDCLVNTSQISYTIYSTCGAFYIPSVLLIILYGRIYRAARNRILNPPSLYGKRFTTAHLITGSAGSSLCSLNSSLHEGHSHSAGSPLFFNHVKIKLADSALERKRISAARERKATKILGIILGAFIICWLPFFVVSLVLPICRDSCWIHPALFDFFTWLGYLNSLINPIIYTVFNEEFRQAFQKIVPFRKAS
# test method notes: Displacement of [3H]5-HT binding from human 5-hydroxytryptamine 1D receptor expressed in CHO cells
# Format: cell-based
pIC50: −log10 of the molar value.
readout type: pIC50

compound: FC(F)(F)c1ccc(CN2CCN(CCCc3c[nH]c4ccc(-n5cnnc5)cc34)CC2)cc1
readout type: pIC50
endpoint value: 8.28
//
compound: NC(=O)C(c1ccccc1)N1CCN(CCCc2c[nH]c3ccc(-n4cnnc4)cc23)CC1 (stereo in doubt; 6q)
readout type: pIC50
endpoint value: 8.64
//
compound: c1ccc(CNC[C@@H]2CCN(CCc3c[nH]c4ccc(-n5cnnc5)cc34)C2)cc1
readout type: pIC50
endpoint value: 9.22

---

# tested target: 5-hydroxytryptamine receptor 1D (Homo sapiens, UniProt P28221)
# test method notes: Displacement of [3H]5-HT from human 5-hydroxytryptamine 1D receptor expressed in CHO cells
# Format: cell-based
pIC50: −log10 of the molar value.
readout type: pIC50

entry smiles: c1cc(CN2CCN(CCCc3c[nH]c4ccc(-n5cnnc5)cc34)CC2)co1
endpoint value: 8.96

---

Recorded EC50 by entry
# tested target: 5-hydroxytryptamine receptor 1D (Homo sapiens)
# test method notes: Stimulation of [35S]GTP-gamma-S, binding in CHO cells expressing the human 5-hydroxytryptamine 1D receptor.
# Format: functional, cell-based
readout type: EC50

compound: Fc1ccc(CN2CCN(CCCc3c[nH]c4ccc(-n5cnnc5)cc34)CC2)cc1
tested target: 5-hydroxytryptamine receptor 1D (Homo sapiens)
readout type: EC50
endpoint value: 0.3 nM
--
compound: c1ccc(CCCN2CCN(CCCc3c[nH]c4ccc(-n5cnnc5)cc34)CC2)cc1
tested target: 5-hydroxytryptamine receptor 1D (Homo sapiens)
readout type: EC50
endpoint value: 4 nM
--
compound: c1ccc(CN2CCN(CCCc3c[nH]c4ccc(-n5cnnc5)cc34)CC2)cc1
tested target: 5-hydroxytryptamine receptor 1D (Homo sapiens)
readout type: EC50
endpoint value: 0.2 nM
--
compound: c1c[nH]c(CN2CCN(CCCc3c[nH]c4ccc(-n5cnnc5)cc34)CC2)n1
tested target: 5-hydroxytryptamine receptor 1D (Homo sapiens)
readout type: EC50
endpoint value: 2 nM
--
compound: OCC(c1ccccc1)N1CCN(CCCc2c[nH]c3ccc(-n4cnnc4)cc23)CC1 (configuration not stated)
tested target: 5-hydroxytryptamine receptor 1D (Homo sapiens)
readout type: EC50
endpoint value: 0.3 nM
--
compound: c1cncc(CCN2CCN(CCCc3c[nH]c4ccc(-n5cnnc5)cc34)CC2)c1
tested target: 5-hydroxytryptamine receptor 1D (Homo sapiens)
readout type: EC50
endpoint value: 7.8 nM
--
compound: NC(=O)C(c1ccccc1)N1CCN(CCCc2c[nH]c3ccc(-n4cnnc4)cc23)CC1 (stereo in doubt; 6p)
tested target: 5-hydroxytryptamine receptor 1D (Homo sapiens)
readout type: EC50
endpoint value: 0.2 nM
--
compound: S=C1CN(CCCc2c[nH]c3ccc(-n4cnnc4)cc23)CCN1Cc1ccccc1
tested target: 5-hydroxytryptamine receptor 1D (Homo sapiens)
readout type: EC50
endpoint value: 2.3 nM
--
compound: CN(C)C(=O)C(c1ccccc1)N1CCN(CCCc2c[nH]c3ccc(-n4cnnc4)cc23)CC1 (configuration not stated)
tested target: 5-hydroxytryptamine receptor 1D (Homo sapiens)
readout type: EC50
endpoint value: 0.8 nM
--
compound: Clc1ccc(CN2CCN(CCCc3c[nH]c4ccc(-n5cnnc5)cc34)CC2)cc1
tested target: 5-hydroxytryptamine receptor 1D (Homo sapiens)
readout type: EC50
endpoint value: 1.2 nM
--
compound: c1cncc(CN2CCN(CCCc3c[nH]c4ccc(-n5cnnc5)cc34)CC2)c1
tested target: 5-hydroxytryptamine receptor 1D (Homo sapiens)
readout type: EC50
endpoint value: 0.3 nM
--
compound: N#Cc1ccc(CN2CCN(CCCc3c[nH]c4ccc(-n5cnnc5)cc34)CC2)cc1
tested target: 5-hydroxytryptamine receptor 1D (Homo sapiens)
readout type: EC50
endpoint value: 1.1 nM
--
compound: c1cc(CN2CCN(CCCc3c[nH]c4ccc(-n5cnnc5)cc34)CC2)co1
tested target: 5-hydroxytryptamine receptor 1D (Homo sapiens)
readout type: EC50
endpoint value: 0.3 nM
--
compound: CC(=O)Nc1ccc(CN2CCN(CCCc3c[nH]c4ccc(-n5cnnc5)cc34)CC2)cc1
tested target: 5-hydroxytryptamine receptor 1D (Homo sapiens)
readout type: EC50
endpoint value: 6.1 nM
--
compound: c1cc(CN2CCN(CCCc3c[nH]c4ccc(-n5cnnc5)cc34)CC2)ccn1
tested target: 5-hydroxytryptamine receptor 1D (Homo sapiens)
readout type: EC50
endpoint value: 1 nM
--
compound: Fc1ccccc1CCN1CCN(CCCc2c[nH]c3ccc(-n4cnnc4)cc23)CC1
tested target: 5-hydroxytryptamine receptor 1D (Homo sapiens)
readout type: EC50
endpoint value: 1.4 nM
--
compound: c1ccc(CCN2CCN(CCCc3c[nH]c4ccc(-n5cnnc5)cc34)CC2)cc1
tested target: 5-hydroxytryptamine receptor 1D (Homo sapiens)
readout type: EC50
endpoint value: 1.7 nM
--
compound: CC(=O)Nc1ccc(CCN2CCN(CCCc3c[nH]c4ccc(-n5cnnc5)cc34)CC2)cc1
tested target: 5-hydroxytryptamine receptor 1D (Homo sapiens)
readout type: EC50
endpoint value: 1.8 nM
--
compound: CNCC(c1ccccc1)N1CCN(CCCc2c[nH]c3ccc(-n4cnnc4)cc23)CC1 (configuration not stated)
tested target: 5-hydroxytryptamine receptor 1D (Homo sapiens)
readout type: EC50
endpoint value: 1.7 nM
--
compound: c1ccc(CN2CCN(CCCc3c[nH]c4ccc(-n5cnnc5)cc34)CC2)nc1
tested target: 5-hydroxytryptamine receptor 1D (Homo sapiens)
readout type: EC50
endpoint value: 0.3 nM
--
compound: c1coc(CN2CCN(CCCc3c[nH]c4ccc(-n5cnnc5)cc34)CC2)c1
tested target: 5-hydroxytryptamine receptor 1D (Homo sapiens)
readout type: EC50
endpoint value: 0.5 nM
--
compound: CC(=O)Nc1cccc(CN2CCN(CCCc3c[nH]c4ccc(-n5cnnc5)cc34)CC2)c1
tested target: 5-hydroxytryptamine receptor 1D (Homo sapiens)
readout type: EC50
endpoint value: 0.2 nM

---

# tested target: UniProtKB P28221
# test method notes: Displacement of [3H]5-HT binding to the cloned human 5-hydroxytryptamine 1D receptor stably expressed in CHO cells
# Format: cell-based
Entries get a class label from measured IC50. See ranges: bottom end: < 0.7 nM; midrange: ≥ 0.7 nM and < 5 nM; top end: ≥ 5 nM

compound: c1ccc(N2CCN(CCCc3c[nH]c4ccc(-n5cnnc5)cc34)CC2)cc1
classification: midrange
//
compound: c1cncc(CN2CCN(CCCc3c[nH]c4ccc(-n5cnnc5)cc34)CC2)c1
classification: bottom end
//
compound: O=C1CN(CCCc2c[nH]c3ccc(-n4cnnc4)cc23)CCN1CCc1ccccc1
classification: top end
//
compound: c1cc2[nH]cc(CCCN3CCNCC3)c2cc1-n1cnnc1
classification: top end
//
compound: Clc1ccc(CN2CCN(CCCc3c[nH]c4ccc(-n5cnnc5)cc34)CC2)cc1
classification: bottom end
//
compound: CN1CCN(CCc2c[nH]c3ccc(-n4cnnc4)cc23)CC1
classification: top end
//
compound: CN1CCN(CCCc2c[nH]c3ccc(-n4cnnc4)cc23)CC1
classification: top end
//
compound: NC(=O)C(c1ccccc1)N1CCN(CCCc2c[nH]c3ccc(-n4cnnc4)cc23)CC1 (stereo in doubt; 6p)
classification: bottom end
//
compound: c1cc(CN2CCN(CCCc3c[nH]c4ccc(-n5cnnc5)cc34)CC2)ccn1
classification: bottom end
//
compound: CC(c1ccccc1)N1CCN(CCCc2c[nH]c3ccc(-n4cnnc4)cc23)CC1 (centres undefined)
classification: midrange

---

Recorded IC50 by entry
# tested target: 5-hydroxytryptamine receptor 1B (Homo sapiens, UniProt P28222)
# Sequence (P28222 whole entry): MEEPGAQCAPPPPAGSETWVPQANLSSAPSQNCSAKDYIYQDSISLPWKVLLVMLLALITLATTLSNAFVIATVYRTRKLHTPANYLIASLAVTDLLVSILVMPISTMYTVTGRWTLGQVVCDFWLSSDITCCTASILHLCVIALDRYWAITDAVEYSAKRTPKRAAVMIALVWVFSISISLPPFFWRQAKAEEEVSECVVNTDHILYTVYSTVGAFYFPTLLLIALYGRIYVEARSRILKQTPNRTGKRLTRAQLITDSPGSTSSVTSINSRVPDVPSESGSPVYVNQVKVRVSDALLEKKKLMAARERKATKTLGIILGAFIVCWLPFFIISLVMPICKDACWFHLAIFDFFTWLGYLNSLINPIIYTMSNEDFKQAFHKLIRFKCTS
# test method notes: Displacement of [3H]5-HT binding from cloned human 5-hydroxytryptamine 1B receptor stably expressed in CHO cells.

molecule: CC(=O)Nc1ccc(CN2CCN(CCCc3c[nH]c4ccc(-n5cnnc5)cc34)CC2)cc1
tested target: 5-hydroxytryptamine receptor 1B (Homo sapiens, UniProt P28222)
units label: nM
IC50: 56

molecule: Fc1ccc(CN2CCN(CCCc3c[nH]c4ccc(-n5cnnc5)cc34)CC2)cc1
tested target: 5-hydroxytryptamine receptor 1B (Homo sapiens, UniProt P28222)
units label: nM
IC50: 20

molecule: O=C1CN(CCCc2c[nH]c3ccc(-n4cnnc4)cc23)CCN1CCc1ccccc1
tested target: 5-hydroxytryptamine receptor 1B (Homo sapiens, UniProt P28222)
units label: nM
IC50: 78

molecule: c1ccc(CNC[C@@H]2CCN(CCc3c[nH]c4ccc(-n5cnnc5)cc34)C2)cc1
tested target: 5-hydroxytryptamine receptor 1B (Homo sapiens, UniProt P28222)
units label: nM
IC50: 37

molecule: c1cc(CN2CCN(CCCc3c[nH]c4ccc(-n5cnnc5)cc34)CC2)ccn1
tested target: 5-hydroxytryptamine receptor 1B (Homo sapiens, UniProt P28222)
units label: nM
IC50: 23

molecule: c1cc2[nH]cc(CCCN3CCOCC3)c2cc1-n1cnnc1
tested target: 5-hydroxytryptamine receptor 1B (Homo sapiens, UniProt P28222)
units label: nM
IC50: 7.4

molecule: CC(=O)Nc1cccc(CN2CCN(CCCc3c[nH]c4ccc(-n5cnnc5)cc34)CC2)c1
tested target: 5-hydroxytryptamine receptor 1B (Homo sapiens, UniProt P28222)
units label: nM
IC50: 2.4

molecule: c1cnc(N2CCN(CCCc3c[nH]c4ccc(-n5cnnc5)cc34)CC2)nc1
tested target: 5-hydroxytryptamine receptor 1B (Homo sapiens, UniProt P28222)
units label: nM
IC50: 0.5

molecule: OCC(c1ccccc1)N1CCN(CCCc2c[nH]c3ccc(-n4cnnc4)cc23)CC1 (stereo not given)
tested target: 5-hydroxytryptamine receptor 1B (Homo sapiens, UniProt P28222)
units label: nM
IC50: 9.5

molecule: c1cc2[nH]cc(CCCN3CCNCC3)c2cc1-n1cnnc1
tested target: 5-hydroxytryptamine receptor 1B (Homo sapiens, UniProt P28222)
units label: nM
IC50: 145

molecule: c1cncc(CN2CCN(CCCc3c[nH]c4ccc(-n5cnnc5)cc34)CC2)c1
tested target: 5-hydroxytryptamine receptor 1B (Homo sapiens, UniProt P28222)
units label: nM
IC50: 22

molecule: Fc1ccc(CCN2CCN(CCCc3c[nH]c4ccc(-n5cnnc5)cc34)CC2)cc1F
tested target: 5-hydroxytryptamine receptor 1B (Homo sapiens, UniProt P28222)
units label: nM
IC50: 83

molecule: Cc1noc(-c2ccc(CCN3CCN(CCCc4c[nH]c5ccc(-n6cnnc6)cc45)CC3)cc2)n1
tested target: 5-hydroxytryptamine receptor 1B (Homo sapiens, UniProt P28222)
units label: nM
IC50: 46

molecule: Fc1cccc(CCN2CCN(CCCc3c[nH]c4ccc(-n5cnnc5)cc34)CC2)c1
tested target: 5-hydroxytryptamine receptor 1B (Homo sapiens, UniProt P28222)
units label: nM
IC50: 72

molecule: CN1CCN(CCc2c[nH]c3ccc(-n4cnnc4)cc23)CC1
tested target: 5-hydroxytryptamine receptor 1B (Homo sapiens, UniProt P28222)
units label: nM
IC50: 304

molecule: CC(c1ccccc1)N1CCN(CCCc2c[nH]c3ccc(-n4cnnc4)cc23)CC1 (stereo not given)
tested target: 5-hydroxytryptamine receptor 1B (Homo sapiens, UniProt P28222)
units label: nM
IC50: 13

molecule: c1c[nH]c(CN2CCN(CCCc3c[nH]c4ccc(-n5cnnc5)cc34)CC2)n1
tested target: 5-hydroxytryptamine receptor 1B (Homo sapiens, UniProt P28222)
units label: nM
IC50: 36

molecule: NC(=O)C(c1ccccc1)N1CCN(CCCc2c[nH]c3ccc(-n4cnnc4)cc23)CC1 (stereo in doubt; 6q)
tested target: 5-hydroxytryptamine receptor 1B (Homo sapiens, UniProt P28222)
units label: nM
IC50: 55

molecule: c1ccc(N2CCN(CCCc3c[nH]c4ccc(-n5cnnc5)cc34)CC2)cc1
tested target: 5-hydroxytryptamine receptor 1B (Homo sapiens, UniProt P28222)
units label: nM
IC50: 13

molecule: S=C1CN(CCCc2c[nH]c3ccc(-n4cnnc4)cc23)CCN1Cc1ccccc1
tested target: 5-hydroxytryptamine receptor 1B (Homo sapiens, UniProt P28222)
units label: nM
IC50: 18

molecule: O=C1CN(CCCc2c[nH]c3ccc(-n4cnnc4)cc23)CCN1Cc1ccccc1
tested target: 5-hydroxytryptamine receptor 1B (Homo sapiens, UniProt P28222)
units label: nM
IC50: 282

molecule: N#Cc1ccc(CN2CCN(CCCc3c[nH]c4ccc(-n5cnnc5)cc34)CC2)cc1
tested target: 5-hydroxytryptamine receptor 1B (Homo sapiens, UniProt P28222)
units label: nM
IC50: 130

molecule: c1ccc(CN2CCN(CCCc3c[nH]c4ccc(-n5cnnc5)cc34)CC2)cc1
tested target: 5-hydroxytryptamine receptor 1B (Homo sapiens, UniProt P28222)
units label: nM
IC50: 11

molecule: c1ccc(CN2CCN(CCCc3c[nH]c4ccc(-n5cnnc5)cc34)CC2)nc1
tested target: 5-hydroxytryptamine receptor 1B (Homo sapiens, UniProt P28222)
units label: nM
IC50: 18

molecule: CC(CN1CCN(CCCc2c[nH]c3ccc(-n4cnnc4)cc23)CC1)c1ccccc1 (stereo not given)
tested target: 5-hydroxytryptamine receptor 1B (Homo sapiens, UniProt P28222)
units label: nM
IC50: 45

molecule: CN1CCN(CCCc2c[nH]c3ccc(-n4cnnc4)cc23)CC1
tested target: 5-hydroxytryptamine receptor 1B (Homo sapiens, UniProt P28222)
units label: nM
IC50: 309

molecule: Clc1ccc(CN2CCN(CCCc3c[nH]c4ccc(-n5cnnc5)cc34)CC2)cc1
tested target: 5-hydroxytryptamine receptor 1B (Homo sapiens, UniProt P28222)
units label: nM
IC50: 59

molecule: CNCC(c1ccccc1)N1CCN(CCCc2c[nH]c3ccc(-n4cnnc4)cc23)CC1 (stereo not given)
tested target: 5-hydroxytryptamine receptor 1B (Homo sapiens, UniProt P28222)
units label: nM
IC50: 17

molecule: CN(C)C(=O)C(c1ccccc1)N1CCN(CCCc2c[nH]c3ccc(-n4cnnc4)cc23)CC1 (stereo not given)
tested target: 5-hydroxytryptamine receptor 1B (Homo sapiens, UniProt P28222)
units label: nM
IC50: 102

molecule: c1ccc(CCCN2CCN(CCCc3c[nH]c4ccc(-n5cnnc5)cc34)CC2)cc1
tested target: 5-hydroxytryptamine receptor 1B (Homo sapiens, UniProt P28222)
units label: nM
IC50: 85
